# Tested on: HCC-2998 colon
# Experiment summary: NCI tumour cell line growth inhibition, 48 h
Measurement kind: TGI

Check out these entries, answers already filled in.
[
  {
    "Molecule": "CCOC(=O)C1CCCC1S(=O)(=O)c1ccc(C)cc1 (centres undefined)",
    "TGI": "> 100 µM"
  },
  {
    "Molecule": "O=C(Nc1ccc([N+](=O)[O-])cc1)c1cc2ccccc2cc1O",
    "TGI": "4.8 µM"
  }
]

Hi, could you look up TGI for each item in my list?
1. CCCCCCCCCCCCCCCCCCOCC1(COP(=O)([O-])OCC[N+](C)(C)C)CCCO1 (centres undefined)
2. O=C(O)C1Cc2ccccc2OC1=O (centres undefined)
3. Cc1ccc(C(=O)Nc2ccccc2C(=O)N/N=C(\c2ccccc2)c2ccccn2)cc1
4. Cc1cc(NS(=O)(=O)c2ccc(NC(=O)c3cccc4c(NNc5ccc(S(N)(=O)=O)cc5)c5ccccc5nc34)cc2)no1
5. CC(=N\N=C\c1ccccn1)/C(C)=N/N=C/c1ccccn1
6. Cc1ccc(C(=O)NC(C)C)cc1N=NN(C)C
7. O=C(Nc1ccc(Cl)cc1)c1cc(S(=O)(=O)NC2=NC(c3ccccc3)c3cc(Cl)ccc3N2)c(SSc2cc(Cl)c(C(=O)Nc3ccc(Cl)cc3)cc2S(=O)(=O)NC2=NC(c3ccccc3)c3cc(Cl)ccc3N2)cc1Cl (centres undefined)

Found:
["4.68 µM", "> 100 µM", "> 100 µM", "92.9 µM", "> 100 µM", "> 100 µM", "> 100 µM"]

---

Please provide measured TGI for the entries that follow.
# Test system: MOLT-4 leukemia
# Experiment summary: NCI tumour cell line growth inhibition, 48 h

[
  {
    "Molecule": "CCCCCCCCCCC(CN(CC)CC)C(O)c1ccccc1 (configuration not stated)",
    "TGI": "5.8 µM"
  }
]

Hi, could you look up TGI for each item in my list?
1. CN(C)C(=S)/N=c1\ssc(=S)n1Cc1ccccn1
2. COc1cc2c(cc1-c1c(C)noc1C)ncc1[nH]c(=O)n([C@H](C)c3ccccn3)c12
3. Cc1cc2nc(NS(=O)(=O)c3cc(C)c(Cl)cc3S)[nH]c2cc1C

Found:
1. > 100 µM
2. 99.3 µM
3. > 100 µM

Hi, could you look up TGI for each item in my list?
1. O=C(O)C1C2CCC(C2)C1c1ccccc1 (configuration not stated)
2. COC(=O)c1cccc2c1Oc1ccccc1S2
3. Clc1ccc2c(NCCN3CCN(c4ccnc(N5CCCC5)n4)CC3)ccnc2c1
4. CC(=O)OC1C/C(C)=C/[C@H](O)CC(C)/C=C/[C@@]2(C)CCC(C(C)(C)O)C12 (some centres not stated)
5. O=C(O)C1=C(Cl)c2ccccc2S1(=O)=O
6. OCCCCC#Cc1ccccc1C#Cc1cccs1

Found:
["> 100 µM", "70 µM", "38.2 µM", "> 100 µM", "> 100 µM", "40.3 µM"]

Hi, could you look up TGI for each item in my list?
1. CC(C)(C)[Si](Nc1ccccc1)(c1ccccc1)c1ccccc1
2. COc1cc(C(c2cc(OC)c(OC)c(OC)c2)N2C(=O)CCC2C(=O)O)cc(OC)c1OC (configuration not stated)

Found:
26.2 µM
> 100 µM

Hi, could you look up TGI for each item in my list?
1. Cc1[nH]ccc2cc3nc4ccccc4c3cc12
2. COc1ccc(CC(C#N)c2cc(OC)c(OC)c(OC)c2)cc1 (configuration not stated)
3. COC(=O)NN=C1C(C)(C)C(=NNC(=O)OC)C1(C)C
4. COC(=O)C[C@](O)(CCC(C)(C)O)C(=O)O[C@@H]1C(OC)=C[C@]23CCCN2CCc2cc4c(cc2[C@H]13)OCO4
5. CC[C@@]1(O)C(=O)OCc2c1cc1n(c2=O)Cc2c-1nc1ccccc1c2/C=N\NC(=O)C(N)=O
6. COc1ccc(CCN2CCOCC2)cc1
7. C/C(CC(=O)Nc1ccc(NC(=O)/C(C)=N/NS(=O)(=O)c2ccc(C)cc2)cc1)=N\NS(=O)(=O)c1ccc(C)cc1

Found:
["3.13 µM", "> 100 µM", "> 100 µM", "> 100 µM", "> 23.7 µM", "> 100 µM", "> 100 µM"]

The measurements presented in this section are drawn from PubChem BioAssay (NCI).
